pIC50: −log10 of the molar value.
From various publications: pIC50 for DNA (cytosine-5)-methyltransferase 3A (Homo sapiens).
measuredMetric: pIC50

INSERT INTO assay_data (compound, assaytarget, measuredmetric, valuemeasured) VALUES
  ('COc1ccc(CN2CCC(Nc3nc(Nc4ccc(NC(=O)CCCCCCC(=O)NO)cc4)nc4cc(OC)c(OC)cc34)CC2)cc1', 'DNA (cytosine-5)-methyltransferase 3A (Homo sapiens)', 'pIC50', 4.13);

(a) O=C(O)c1ccc(NC(=O)c2ccc3c(c2)C(=O)N(Cc2ccco2)C3=O)cc1
(b) O=C(NO)C1CCN(CC(O)COC(Cn2c3ccccc3c3ccccc32)Cn2c3ccccc3c3ccccc32)CC1 (stereo not given)
[ask] Problem: Given the entries a and b , determine which has the lower reported pIC50. Answer by quoting the chosen item's label.
[reply] a
